Provide the reported pIC50 of each item.
target desc: Vascular endothelial growth factor receptor 2 (Homo sapiens, UniProt P35968)
Sequence (P35968 whole entry): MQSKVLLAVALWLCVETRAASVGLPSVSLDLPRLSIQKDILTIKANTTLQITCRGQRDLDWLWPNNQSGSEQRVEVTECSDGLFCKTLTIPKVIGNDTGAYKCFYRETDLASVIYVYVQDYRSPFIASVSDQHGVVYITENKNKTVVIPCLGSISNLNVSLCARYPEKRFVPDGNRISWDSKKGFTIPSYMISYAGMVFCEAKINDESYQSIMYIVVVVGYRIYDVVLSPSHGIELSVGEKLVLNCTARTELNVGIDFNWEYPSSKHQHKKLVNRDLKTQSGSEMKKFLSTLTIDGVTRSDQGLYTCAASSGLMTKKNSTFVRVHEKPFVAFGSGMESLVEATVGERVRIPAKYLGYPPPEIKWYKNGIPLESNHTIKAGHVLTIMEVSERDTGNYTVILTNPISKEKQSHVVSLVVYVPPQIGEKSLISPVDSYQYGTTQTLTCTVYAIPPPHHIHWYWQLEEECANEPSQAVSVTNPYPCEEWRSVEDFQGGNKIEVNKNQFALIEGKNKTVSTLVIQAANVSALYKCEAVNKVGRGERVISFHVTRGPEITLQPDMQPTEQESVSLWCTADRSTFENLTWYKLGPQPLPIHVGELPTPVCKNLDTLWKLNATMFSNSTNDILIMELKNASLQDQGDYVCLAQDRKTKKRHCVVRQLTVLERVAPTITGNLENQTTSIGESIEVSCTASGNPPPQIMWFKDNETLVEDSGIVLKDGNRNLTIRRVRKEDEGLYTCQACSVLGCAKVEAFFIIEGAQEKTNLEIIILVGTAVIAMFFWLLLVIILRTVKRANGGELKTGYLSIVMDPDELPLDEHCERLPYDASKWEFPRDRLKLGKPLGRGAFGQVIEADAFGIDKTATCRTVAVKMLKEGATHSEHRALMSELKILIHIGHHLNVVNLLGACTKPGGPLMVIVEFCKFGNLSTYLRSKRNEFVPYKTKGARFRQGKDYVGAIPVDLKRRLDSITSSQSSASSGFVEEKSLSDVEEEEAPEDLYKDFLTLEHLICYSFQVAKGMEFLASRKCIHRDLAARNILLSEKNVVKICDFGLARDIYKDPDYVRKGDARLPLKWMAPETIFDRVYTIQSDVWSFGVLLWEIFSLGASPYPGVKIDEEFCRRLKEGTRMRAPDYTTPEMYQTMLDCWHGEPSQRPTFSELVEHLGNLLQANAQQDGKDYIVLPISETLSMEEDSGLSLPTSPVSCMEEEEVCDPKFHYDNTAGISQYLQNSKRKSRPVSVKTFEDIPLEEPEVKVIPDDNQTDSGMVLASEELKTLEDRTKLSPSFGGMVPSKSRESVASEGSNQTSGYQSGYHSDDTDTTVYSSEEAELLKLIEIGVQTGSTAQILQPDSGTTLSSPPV
procedure summary: Inhibition of recombinant N terminal GST-tagged human KDR (805 to 1356) expressed in baculovirus infected Sf9 cells after 90 mins by caliper mobility shift assay
One number for each entry, as −log10 of the molar value.

INSERT INTO assay_data (given_smiles, target_desc, meas_value) VALUES
  ('COc1cc(CCc2cc(Nc3ccnc(NCc4cc(C)no4)n3)n[nH]2)cc(OC)c1', 'Vascular endothelial growth factor receptor 2 (Homo sapiens, UniProt P35968)', 7.10),
  ('Cc1cc(Nc2ccnc(NCc3cc(C4CC4)no3)n2)n[nH]1', 'Vascular endothelial growth factor receptor 2 (Homo sapiens, UniProt P35968)', 6.10);

Batch request: pIC50 for each of the following compounds.
1. COCCCc1cc(Nc2ccnc(NCc3cc(C4CC4)no3)n2)n[nH]1
2. Cc1cc(Nc2nc(NCc3ncccc3C)ncc2Br)n[nH]1

1: 5.80; 2: 6.30
